- ASSAYED_TARGET: Serine/threonine-protein kinase PLK1 (Homo sapiens)
- RUN_PARAMETERS: at 0.1 µM
QUANTITY: inhibition

Worked examples follow.
{"COMPOUND": "CCCN1CCC(c2ccc(Nc3nc(Nc4cc(F)ccc4C(N)=O)c4cc[nH]c4n3)c(OC)c2)CC1", "TEST_VALUE": "12.5%"}
{"COMPOUND": "CS(=O)(=O)CCNCc1ccc(-c2ccc3ncnc(Nc4ccc(OCc5ccccc5)c(C(F)(F)F)c4)c3c2)o1", "TEST_VALUE": "3.58%"}
{"COMPOUND": "Cc1cccc(Nc2ncc(-c3ccccc3)o2)c1", "TEST_VALUE": "2.24%"}
{"COMPOUND": "[O-][S+]1CCN(Cc2ccc(-c3ccc4ncnc(Nc5ccc(OCc6cccc(F)c6)c(Cl)c5)c4c3)o2)CC1", "TEST_VALUE": "4.06%"}
{"COMPOUND": "COc1cccc(-n2ncc3c(N/N=C/c4ccc(F)cc4)ncnc32)c1", "TEST_VALUE": "1.91%"}
{"COMPOUND": "COc1cc(/C=N/Nc2ncnc3[nH]ncc23)ccc1O", "TEST_VALUE": "0.7%"}
{"COMPOUND": "COC(=O)c1sc(-n2cnc3cc(OC)c(OC)cc32)cc1OCc1ccccc1C(F)(F)F", "TEST_VALUE": "3.92%"}
{"COMPOUND": "c1ccc(-c2nc3n(c2-c2ccc4c(c2)OCO4)CCC3)nc1", "TEST_VALUE": "1.59%"}
{"COMPOUND": "CC1=C(C(=O)Nc2cc(Cl)c3[nH]ncc3c2)C(c2ccc(C(F)(F)F)cc2)CC(=O)N1 (stereo not given)", "TEST_VALUE": "4.17%"}

Record `CS(=O)(=O)CCNCc1coc(-c2ccc3ncnc(Nc4ccc(OCc5ccccc5)cc4)c3c2)c1` : what is its inhibition with Serine/threonine-protein kinase PLK1 (Homo sapiens)?
4.26%

###

A collection of compounds and their measured inhibition
- ASSAYED_TARGET: Cyclin-dependent kinase 6 (Homo sapiens) (UniProt Q00534);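 also: mean percent inhibition of the kinase bound to its cyclin partner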
- Sequence (Q00534 whole entry): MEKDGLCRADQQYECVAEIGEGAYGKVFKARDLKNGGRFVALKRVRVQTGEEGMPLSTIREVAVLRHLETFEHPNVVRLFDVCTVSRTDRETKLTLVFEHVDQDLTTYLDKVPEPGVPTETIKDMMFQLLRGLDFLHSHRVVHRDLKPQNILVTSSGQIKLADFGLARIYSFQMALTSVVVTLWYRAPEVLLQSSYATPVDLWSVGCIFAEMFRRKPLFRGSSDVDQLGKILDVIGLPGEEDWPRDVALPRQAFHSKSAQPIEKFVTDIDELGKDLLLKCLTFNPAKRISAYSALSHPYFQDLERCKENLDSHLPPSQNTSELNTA
- RUN_PARAMETERS: at 1 µM
Give me the value, and tack the unit on after it.

{"CHEMICAL_SMILES": "COc1ccc(CNC(=O)c2ccc(-c3cc(-c4nnc(C)o4)ccc3C)cc2)cc1", "inhibition": "-2.05%"}
{"CHEMICAL_SMILES": "Fc1ccc(-c2nn3ccccc3c2-c2ccncc2)cc1", "inhibition": "2.7%"}
{"CHEMICAL_SMILES": "CCCN(CCS(C)(=O)=O)Cc1ccc(-c2ccc3ncnc(Nc4ccc(OCc5cccc(F)c5)c(Cl)c4)c3c2)o1", "inhibition": "7%"}
{"CHEMICAL_SMILES": "COc1cc(/C=N/Nc2ncnc3[nH]ncc23)ccc1O", "inhibition": "15.9%"}
{"CHEMICAL_SMILES": "Cc1ccc2c(-c3ccnc(Nc4ccccc4)n3)c(-c3ccc(F)cc3)nn2n1", "inhibition": "5.2%"}
{"CHEMICAL_SMILES": "[O-][S+]1CCN(Cc2ccc(-c3ccc4ncnc(Nc5ccc(OCc6cccc(F)c6)c(Cl)c5)c4c3)o2)CC1", "inhibition": "3.99%"}

Quick one: inhibition of `COc1cc(N2CCN(C(C)C)CC2)ccc1Nc1nc(Nc2ccc(F)cc2C(N)=O)c2cc[nH]c2n1` ?
2.77%

Quick one: inhibition of `c1ccc(COc2ccc(Nc3ncnc4ccc(-c5ccco5)cc34)cc2)cc1` ?
-1.6%

Quick one: inhibition of `CCn1c(-c2nonc2N)nc2c(C#CC(C)(C)O)ncc(OC3CCNCC3)c21` ?
-1.44%

###

- ASSAYED_TARGET: Phosphatidylinositol 4,5-bisphosphate 3-kinase catalytic subunit alpha isoform (Homo sapiens) (UniProt P42336);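 also: values are mean inhibition figures from the GSK PKIS kinase panel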
- Sequence (P42336 whole entry, canonical isoform): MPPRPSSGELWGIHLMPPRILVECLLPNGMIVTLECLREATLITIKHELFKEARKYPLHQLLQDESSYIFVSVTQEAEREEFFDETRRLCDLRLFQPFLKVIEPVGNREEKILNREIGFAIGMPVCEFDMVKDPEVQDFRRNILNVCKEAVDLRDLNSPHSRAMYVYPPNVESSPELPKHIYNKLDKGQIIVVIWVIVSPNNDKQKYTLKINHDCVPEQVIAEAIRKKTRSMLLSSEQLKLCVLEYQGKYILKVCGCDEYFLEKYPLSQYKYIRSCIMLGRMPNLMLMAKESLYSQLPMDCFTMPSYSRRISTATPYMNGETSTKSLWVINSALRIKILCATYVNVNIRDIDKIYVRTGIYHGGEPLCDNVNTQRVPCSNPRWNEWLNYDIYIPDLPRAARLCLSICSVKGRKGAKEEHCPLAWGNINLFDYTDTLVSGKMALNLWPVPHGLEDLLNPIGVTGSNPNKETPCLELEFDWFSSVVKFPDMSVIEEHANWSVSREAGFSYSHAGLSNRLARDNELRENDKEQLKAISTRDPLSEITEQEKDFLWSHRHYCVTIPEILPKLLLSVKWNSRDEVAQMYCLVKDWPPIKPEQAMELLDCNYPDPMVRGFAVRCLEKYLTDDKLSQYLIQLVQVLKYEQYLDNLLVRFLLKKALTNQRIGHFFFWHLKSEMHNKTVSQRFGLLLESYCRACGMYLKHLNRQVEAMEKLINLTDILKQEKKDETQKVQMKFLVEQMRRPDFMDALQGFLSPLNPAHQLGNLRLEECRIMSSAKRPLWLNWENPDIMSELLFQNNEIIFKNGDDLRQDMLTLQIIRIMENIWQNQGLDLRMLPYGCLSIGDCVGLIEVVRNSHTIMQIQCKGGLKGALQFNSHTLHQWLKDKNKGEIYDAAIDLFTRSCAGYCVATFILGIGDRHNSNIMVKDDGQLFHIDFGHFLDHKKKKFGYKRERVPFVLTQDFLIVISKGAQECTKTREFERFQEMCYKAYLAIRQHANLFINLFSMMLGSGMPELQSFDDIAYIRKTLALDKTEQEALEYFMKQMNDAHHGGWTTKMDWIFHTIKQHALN
- RUN_PARAMETERS: at 0.1 µM
A collection of compounds and their measured inhibition

Worked examples follow.
{"CHEMICAL_SMILES": "CC(C)COC(=O)c1ccc2c(c1)/C(=C/Nc1ccc(S(N)(=O)=O)cc1)C(=O)N2", "inhibition": "3.8%"}
{"CHEMICAL_SMILES": "COc1cc(Nc2nccc(Nc3ccc4c(C)n[nH]c4c3)n2)cc(OC)c1OC", "inhibition": "1.57%"}
{"CHEMICAL_SMILES": "CCOc1ccc2c(-c3ccnc(Nc4cccc(C(F)(F)F)c4)n3)cnn2n1", "inhibition": "2.25%"}
{"CHEMICAL_SMILES": "Fc1ccc(-c2cc(-c3c[nH]nc3-c3ccccn3)ccn2)cc1", "inhibition": "4.44%"}

// below: inhibition requested for another compound
Quick one: inhibition of `CN1CCC(n2cnc(-c3ccc(F)cc3)c2-c2ccnc(Nc3ccccc3)n2)CC1` ?
1.36%

###

- ASSAYED_TARGET: Serine/threonine-protein kinase BRSK2 (Homo sapiens) (UniProt Q8IWQ3);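 also: values are mean inhibition of BRSK2 from the GSK PKIS screening dataset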
- Sequence (Q8IWQ3 whole entry): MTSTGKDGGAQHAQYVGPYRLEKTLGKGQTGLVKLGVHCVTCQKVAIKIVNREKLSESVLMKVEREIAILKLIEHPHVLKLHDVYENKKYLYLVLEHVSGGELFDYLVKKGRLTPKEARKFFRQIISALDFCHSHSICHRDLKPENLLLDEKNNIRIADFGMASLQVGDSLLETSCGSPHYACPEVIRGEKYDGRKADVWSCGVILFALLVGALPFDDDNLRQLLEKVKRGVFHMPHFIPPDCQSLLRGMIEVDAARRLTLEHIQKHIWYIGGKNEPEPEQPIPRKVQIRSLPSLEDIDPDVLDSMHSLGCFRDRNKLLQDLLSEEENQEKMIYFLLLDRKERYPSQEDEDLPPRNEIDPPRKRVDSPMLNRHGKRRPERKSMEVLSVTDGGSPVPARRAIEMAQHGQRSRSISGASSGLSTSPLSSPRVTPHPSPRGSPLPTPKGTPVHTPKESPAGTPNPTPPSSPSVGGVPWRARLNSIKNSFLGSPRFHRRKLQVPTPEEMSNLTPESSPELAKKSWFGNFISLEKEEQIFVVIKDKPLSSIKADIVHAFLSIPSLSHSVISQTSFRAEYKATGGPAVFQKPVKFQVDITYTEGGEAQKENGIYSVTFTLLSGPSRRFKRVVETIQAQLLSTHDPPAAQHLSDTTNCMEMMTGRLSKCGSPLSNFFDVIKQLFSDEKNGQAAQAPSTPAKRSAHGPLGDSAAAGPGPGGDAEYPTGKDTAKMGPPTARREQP
- RUN_PARAMETERS: at 0.1 µM
QUANTITY: inhibition (%)
Express your answer in %, writing the number without its unit.

{"CHEMICAL_SMILES": "CC(C)COC(=O)c1ccc2c(c1)/C(=C/Nc1ccc(S(N)(=O)=O)cc1)C(=O)N2", "TEST_VALUE": 10.1}
{"CHEMICAL_SMILES": "NS(=O)(=O)c1ccc(N/N=C2\\C(=O)Nc3ccc4ncccc4c32)cc1", "TEST_VALUE": 60.4}
{"CHEMICAL_SMILES": "CN(C)CCOc1ccc(-c2nc(-c3ccncc3)c(-c3ccc4c(c3)CC/C4=N\\O)[nH]2)cc1", "TEST_VALUE": 0.6}
{"CHEMICAL_SMILES": "COc1cc(Nc2nccc(Nc3ccc4c(C)n[nH]c4c3)n2)cc(OC)c1OC", "TEST_VALUE": 2.02}

Record `CCN(CC)S(=O)(=O)c1ccc(OC)c(Nc2ncc(-c3ccccc3)o2)c1` : what is its inhibition with Serine/threonine-protein kinase BRSK2 (Homo sapiens) (UniProt Q8IWQ3)?
3.36

Record `c1cc(-c2cnn3nc(N4CCOCC4)ccc23)nc(NC2CC2)n1` : what is its inhibition with Serine/threonine-protein kinase BRSK2 (Homo sapiens) (UniProt Q8IWQ3)?
3.67

Record `CC(C)(CO)CNC(=O)c1ccc2c(c1)/C(=N/Nc1ccc(S(N)(=O)=O)cc1)C(=O)N2` : what is its inhibition with Serine/threonine-protein kinase BRSK2 (Homo sapiens) (UniProt Q8IWQ3)?
11.6

Record `Cc1ccc2c(-c3ccnc(Nc4ccccc4)n3)c(-c3ccc(F)cc3)nn2n1` : what is its inhibition with Serine/threonine-protein kinase BRSK2 (Homo sapiens) (UniProt Q8IWQ3)?
1.27

Record `NS(=O)(=O)c1ccc(Nc2ncc(-c3ccccc3)o2)cc1` : what is its inhibition with Serine/threonine-protein kinase BRSK2 (Homo sapiens) (UniProt Q8IWQ3)?
2.58

Record `CCCN1CCC(c2ccc(Nc3nc(Nc4cc(F)ccc4C(N)=O)c4cc[nH]c4n3)c(OC)c2)CC1` : what is its inhibition with Serine/threonine-protein kinase BRSK2 (Homo sapiens) (UniProt Q8IWQ3)?
2.24

###

- ASSAYED_TARGET: Aurora kinase C (Homo sapiens) (UniProt Q9UQB9);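 also: reported value is a mean inhibition of Aurora-C from the GSK PKIS screening panel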
- Sequence (whole entry): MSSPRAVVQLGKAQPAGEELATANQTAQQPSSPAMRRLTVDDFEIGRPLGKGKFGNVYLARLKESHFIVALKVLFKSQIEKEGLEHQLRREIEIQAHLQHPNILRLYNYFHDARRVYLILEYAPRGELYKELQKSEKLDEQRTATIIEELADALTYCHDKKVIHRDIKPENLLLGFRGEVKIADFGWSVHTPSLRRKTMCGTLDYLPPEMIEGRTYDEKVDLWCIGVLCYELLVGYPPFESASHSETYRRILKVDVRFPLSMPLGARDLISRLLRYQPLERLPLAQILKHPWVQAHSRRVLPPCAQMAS
- RUN_PARAMETERS: at 1 µM
A collection of compounds and their measured inhibition
Express your answer in %, writing the number without its unit.

{"CHEMICAL_SMILES": "CS(=O)(=O)CCNCc1ccc(-c2ccc3ncnc(Nc4ccc(OCc5ccccc5)c(C(F)(F)F)c4)c3c2)o1", "QUANTITY": "inhibition", "TEST_VALUE": 2.61}
{"CHEMICAL_SMILES": "CS(=O)(=O)CCNCc1coc(-c2ccc3ncnc(Nc4ccc(OCc5ccccc5)cc4)c3c2)c1", "QUANTITY": "inhibition", "TEST_VALUE": 8.58}

Record `CC(=O)NCc1cccc(C#Cc2cncnc2Nc2ccc(OCc3cccc(F)c3)c(Cl)c2)c1` : what is its inhibition with Aurora kinase C (Homo sapiens) (UniProt Q9UQB9)?
-2.37

###

- ASSAYED_TARGET: Serine/threonine-protein kinase PLK1 (Homo sapiens);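 also: reported values are mean PLK1 inhibition, measured as part of the GSK PKIS profiling set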
- RUN_PARAMETERS: at 0.1 µM
QUANTITY: inhibition (%)
Express your answer in %, writing the number without its unit.

{"CHEMICAL_SMILES": "CCn1c(-c2nonc2N)nc2c(C#CC(C)(C)O)ncc(OC3CCNCC3)c21", "TEST_VALUE": 2.8}
{"CHEMICAL_SMILES": "NS(=O)(=O)c1ccc(N/N=C2\\C(=O)Nc3ccc4ncccc4c32)cc1", "TEST_VALUE": 2.36}
{"CHEMICAL_SMILES": "COc1cc2ncn(-c3cc(OCc4ccccc4C(F)(F)F)c(C(=O)N(C)C)s3)c2cc1OC", "TEST_VALUE": 3.97}
{"CHEMICAL_SMILES": "N#Cc1c(NC(=O)c2ccc(F)cc2)sc2c1CCCC2", "TEST_VALUE": 4.32}
{"CHEMICAL_SMILES": "COc1cc(Nc2nccc(Nc3ccc4c(C)n[nH]c4c3)n2)cc(OC)c1OC", "TEST_VALUE": 2.28}
{"CHEMICAL_SMILES": "Fc1ccc(-c2nn3ccccc3c2-c2ccncc2)cc1", "TEST_VALUE": 1.11}
{"CHEMICAL_SMILES": "CCn1c(-c2nonc2N)nc2ccccc21", "TEST_VALUE": 6.53}
{"CHEMICAL_SMILES": "COc1cc(N2CCN(C(C)C)CC2)ccc1Nc1nc(Nc2ccc(F)cc2C(N)=O)c2cc[nH]c2n1", "TEST_VALUE": 16}

Quick one: inhibition of `Fc1ccc(-c2cc(-c3c[nH]nc3-c3ccccn3)ccn2)cc1` ?
3.3

Quick one: inhibition of `Clc1ccc(-c2nn3ncccc3c2-c2ccnc(Nc3ccccc3)n2)cc1` ?
-9.28
